Velvetleaf plant response rating for assorted compounds
Tested on: velvetleaf
PROTOCOL TEXT: Test A pre-/postemergence herbicide test
Assay type: in vivo, Abutilon theophrasti
CONDITION LABEL: Preemergence, 500 g ai/ha; visual rating, 0 to 100 scale (0 no effect, 100 complete control)

{"CPD SMILES": "CCOC(=O)c1cc(NC(=O)c2cc(C(C)(C)C)nn2CC)ccc1OCC", "STUDY TARGET": "velvetleaf", "Velvetleaf plant response rating": 50}
{"CPD SMILES": "CN1Cc2c(NC(=O)c3cc(C(C)(C)C)nn3C)cccc2C1=O", "STUDY TARGET": "velvetleaf", "Velvetleaf plant response rating": 0}
{"CPD SMILES": "CC(=NO)c1cccc(NC(=O)c2cc(C(F)(F)F)nn2C)c1", "STUDY TARGET": "velvetleaf", "Velvetleaf plant response rating": 20}
{"CPD SMILES": "CCN1CCc2c(NC(=O)c3cc(C(C)(C)C)nn3CC)cccc2C1=O", "STUDY TARGET": "velvetleaf", "Velvetleaf plant response rating": 20}

---

System: Surinam grass
PROTOCOL TEXT: Test B pre-/postemergence herbicide test
Assay type: in vivo, Urochloa decumbens
CONDITION LABEL: postemergence, 500 g ai/ha; visual rating, scale 0 (no effect) to 100 (complete control)
Surinam Grass plant response rating for assorted molecules
QUANTITY MEASURED: Surinam Grass plant response rating

{"CPD SMILES": "CC(C)(C)c1cc(C(=O)Nc2cccc(SC(F)(F)F)c2)n(CCF)n1", "OBSERVED": 60}
{"CPD SMILES": "CC(=O)c1cccc(NC(=O)c2sc(C(C)(C)C)nc2C)c1", "OBSERVED": 40}
{"CPD SMILES": "CC(=NO)c1cccc(NC(=O)c2cn(C(C)C)nc2C)c1", "OBSERVED": 0}
{"CPD SMILES": "Cn1nc(C(C)(C)C)cc1C(=O)Nc1cccc(C#N)c1", "OBSERVED": 30}
{"CPD SMILES": "CC(=O)c1cccc(NC(=O)c2cc(C(C)(C)C)nn2CC(F)(F)F)c1", "OBSERVED": 20}
{"CPD SMILES": "CCc1nc(C(C)(C)C)sc1C(=O)Nc1cccc(C(=O)N(CC)CC)n1", "OBSERVED": 10}
{"CPD SMILES": "CCN(CC)C(=O)c1cccc(NC(=O)c2nn(C(C)(C)C)cc2Cl)c1", "OBSERVED": 10}
{"CPD SMILES": "CC(=NO)c1cccc(NC(=O)c2nn(C(C)(C)C)cc2C(F)(F)F)c1", "OBSERVED": 10}

---

Tested on: giant foxtail
PROTOCOL TEXT: Test A pre-/postemergence herbicide test
Type: in vivo, Setaria faberi
CONDITION LABEL: preemergence, 500 g ai/ha; visual injury, 0 to 100 scale (0 no effect, 100 complete control)

{"COMPOUND": "CCN(CC)C(=O)c1cccc(NC(=O)c2sc(C(C)(C)C)nc2C)c1 [Compound 199]", "Foxtail, Giant plant response rating": 80}
{"COMPOUND": "CCn1nc(C(C)(C)C)cc1C(=O)Nc1ccnc(C(=O)N2CC=CC2)c1 [Compound 282]", "Foxtail, Giant plant response rating": 10}
{"COMPOUND": "CCc1nc(C(C)(C)C)sc1C(=O)Nc1cccc(C(=O)NCC2CC2)c1 [Compound 212]", "Foxtail, Giant plant response rating": 70}
{"COMPOUND": "CCOc1cccc(NC(=O)c2cn(C(C)(C)C)nc2C)c1 [Compound 190]", "Foxtail, Giant plant response rating": 0}
{"COMPOUND": "C#CCNC(=O)c1cc(NC(=O)c2cc(C(C)(C)C)nn2CC)ccn1 [Compound 283]", "Foxtail, Giant plant response rating": 10}
{"COMPOUND": "C#CCNC(=O)c1cccc(NC(=O)c2sc(C(C)(C)C)nc2CC)c1 [Compound 319]", "Foxtail, Giant plant response rating": 55}

---

System: common ragweed
PROTOCOL TEXT: Test C pre-/postemergence herbicide test
Type: in vivo, Ambrosia elatior
Design: key: 0 = no effect, 100 = complete control
CONDITION LABEL: 500 g ai/ha; scale 0 to 100 (0 no effect, 100 complete control); visual, 12 to 14 days; preemergence

{"MOLECULE": "CCc1nn(C(C)C)nc1C(=O)Nc1cccc(C(=O)N(C)CC)c1", "Plant response rating, Ragweed": 100}
{"MOLECULE": "CCc1nn(C(C)C)nc1C(=O)Nc1cccc(C(=O)N2CCCCC2)c1", "Plant response rating, Ragweed": 95}
{"MOLECULE": "C=CCNC(=O)c1cccc(NC(=O)c2nn(C(C)C)nc2CC)c1", "Plant response rating, Ragweed": 100}
{"MOLECULE": "CCNC(=O)c1ccc(F)c(NC(=O)C2CC(C(C)(C)C)=NN2CC)c1 (racemic)", "Plant response rating, Ragweed": 90}
{"MOLECULE": "CCc1nn(C(C)C)nc1C(=O)Nc1cccc(C(=S)N(C)C)c1", "Plant response rating, Ragweed": 95}

---

Rice plant response rating for assorted molecules
Tested on: rice
PROTOCOL TEXT: Test C flooded paddy test
Assay type: in vivo, Oryza sativa
CONDITION LABEL: 62 g ai/ha, scale 0 to 100

{"MOLECULE": "C#CCNC(=O)c1cccc(NC(=O)c2sc(C(C)(C)C)nc2CC)c1", "Rice plant response rating": 0}
{"MOLECULE": "CCn1nc(C(C)(C)C)cc1C(=O)Nc1cncc(C(=O)N2CC=CC2)c1", "Rice plant response rating": 0}
{"MOLECULE": "CCN(C)C(=O)c1cccc(NC(=O)c2nn(C(C)C)nc2C)c1", "Rice plant response rating": 0}
{"MOLECULE": "CCN(CC)C(=O)c1ccc(F)c(NC(=O)C2CC(C(C)(C)C)=NN2CC)c1 (racemic)", "Rice plant response rating": 15}
{"MOLECULE": "CCc1nn(C(C)C)nc1C(=O)Nc1cccc(C(=O)N(C)CC)c1", "Rice plant response rating": 25}
{"MOLECULE": "CCOC(=O)c1cccc(NC(=O)c2cc(C3(C)CC3)nn2CC)c1", "Rice plant response rating": 5}

---

Tested on: barnyardgrass
PROTOCOL TEXT: Test A pre-/postemergence herbicide test
Format: in vivo, Echinochloa crus-galli
CONDITION LABEL: Postemergence, 500 g ai/ha; 0 to 100 scale, 0 no effect, 100 complete control

{"CPD SMILES": "CCn1nc(C(C)(C)C)cc1C(=O)Nc1cccc(C(=O)NCC2CC2)c1", "STUDY TARGET": "barnyardgrass", "Plant response rating, Barnyardgrass": 65}
{"CPD SMILES": "CN1Cc2c(NC(=O)c3cc(C(C)(C)C)nn3C)cccc2C1=O", "STUDY TARGET": "barnyardgrass", "Plant response rating, Barnyardgrass": 10}
{"CPD SMILES": "CCn1nc(C(C)(C)C)cc1C(=O)Nc1cccc(C(=O)NC(C)C)c1", "STUDY TARGET": "barnyardgrass", "Plant response rating, Barnyardgrass": 75}
{"CPD SMILES": "C=Cn1nc(C(C)(C)C)cc1C(=O)Nc1cccc(C(=O)N(CC)CC)c1", "STUDY TARGET": "barnyardgrass", "Plant response rating, Barnyardgrass": 45}

---

System: rice
PROTOCOL TEXT: Test B pre-/postemergence herbicide test
Assay type: in vivo, Oryza sativa
CONDITION LABEL: 500 g ai/ha; visual rating 0-100, 0 no effect, 100 complete control; preemergence

{"MOLECULE": "CCNC(=O)c1cccc(NC(=O)c2cc(C(C)(C)C)nn2CC)n1 [Compound 144]", "Plant response rating, Rice": 30}
{"MOLECULE": "CCc1nc(C(C)(C)C)sc1C(=O)Nc1cccc(C(=O)NCC2CC2)c1 [Compound 212]", "Plant response rating, Rice": 20}
{"MOLECULE": "CC(=NO)c1cccc(NC(=O)c2nn(C(C)(C)C)cc2C(F)(F)F)c1 [Compound 171]", "Plant response rating, Rice": 0}
{"MOLECULE": "CCc1nc(C(C)(C)C)sc1C(=O)Nc1cccc(C(=O)N(CC)CC)c1 [Compound 205]", "Plant response rating, Rice": 70}
{"MOLECULE": "CC(C)(C)c1cc(C(=O)Nc2cccc(SC(F)(F)F)c2)n(CCF)n1 [Compound 132]", "Plant response rating, Rice": 0}
{"MOLECULE": "CCn1nc(C(C)(C)C)cc1C(=O)Nc1cccc(C(=O)OCCF)c1C [Compound 91]", "Plant response rating, Rice": 10}

---

System: velvetleaf
PROTOCOL TEXT: Test B pre-/postemergence herbicide test
Format: in vivo, Abutilon theophrasti
CONDITION LABEL: Abutilon theophrasti, post-emergence, 336 h, postemergence, 125 g ai/ha; visual rating, scale 0 (no effect) to 100 (complete control); read-out: Velvetleaf plant response rating
QUANTITY MEASURED: pest or weed control at 125 g/ha (%)

{"COMPOUND": "CCn1nc(C(C)(C)C)cc1C(=O)Nc1cccc(C(=O)OCCF)c1 [Compound 82]", "OBSERVED": 80}
{"COMPOUND": "CCNC(=O)c1cccc(NC(=O)c2nn(C(C)(C)C)cc2Br)c1 [Compound 221]", "OBSERVED": 0}
{"COMPOUND": "CCN1N=C(C(C)(C)C)CC1C(=O)Nc1cc(C(=O)N(C)C)ccc1F (stereo not shown) [Compound 268]", "OBSERVED": 20}
{"COMPOUND": "CCN(CC)C(=O)c1cncc(NC(=O)c2cc(C(C)(C)C)nn2CC)c1 [Compound 261]", "OBSERVED": 0}
